measured target: human ACC2 (Homo sapiens, UniProt O00763)
Construct: made in house; host or cells: insect cells (baculoviral expression system)
Sequence (O00763 129-2458 limits assumed): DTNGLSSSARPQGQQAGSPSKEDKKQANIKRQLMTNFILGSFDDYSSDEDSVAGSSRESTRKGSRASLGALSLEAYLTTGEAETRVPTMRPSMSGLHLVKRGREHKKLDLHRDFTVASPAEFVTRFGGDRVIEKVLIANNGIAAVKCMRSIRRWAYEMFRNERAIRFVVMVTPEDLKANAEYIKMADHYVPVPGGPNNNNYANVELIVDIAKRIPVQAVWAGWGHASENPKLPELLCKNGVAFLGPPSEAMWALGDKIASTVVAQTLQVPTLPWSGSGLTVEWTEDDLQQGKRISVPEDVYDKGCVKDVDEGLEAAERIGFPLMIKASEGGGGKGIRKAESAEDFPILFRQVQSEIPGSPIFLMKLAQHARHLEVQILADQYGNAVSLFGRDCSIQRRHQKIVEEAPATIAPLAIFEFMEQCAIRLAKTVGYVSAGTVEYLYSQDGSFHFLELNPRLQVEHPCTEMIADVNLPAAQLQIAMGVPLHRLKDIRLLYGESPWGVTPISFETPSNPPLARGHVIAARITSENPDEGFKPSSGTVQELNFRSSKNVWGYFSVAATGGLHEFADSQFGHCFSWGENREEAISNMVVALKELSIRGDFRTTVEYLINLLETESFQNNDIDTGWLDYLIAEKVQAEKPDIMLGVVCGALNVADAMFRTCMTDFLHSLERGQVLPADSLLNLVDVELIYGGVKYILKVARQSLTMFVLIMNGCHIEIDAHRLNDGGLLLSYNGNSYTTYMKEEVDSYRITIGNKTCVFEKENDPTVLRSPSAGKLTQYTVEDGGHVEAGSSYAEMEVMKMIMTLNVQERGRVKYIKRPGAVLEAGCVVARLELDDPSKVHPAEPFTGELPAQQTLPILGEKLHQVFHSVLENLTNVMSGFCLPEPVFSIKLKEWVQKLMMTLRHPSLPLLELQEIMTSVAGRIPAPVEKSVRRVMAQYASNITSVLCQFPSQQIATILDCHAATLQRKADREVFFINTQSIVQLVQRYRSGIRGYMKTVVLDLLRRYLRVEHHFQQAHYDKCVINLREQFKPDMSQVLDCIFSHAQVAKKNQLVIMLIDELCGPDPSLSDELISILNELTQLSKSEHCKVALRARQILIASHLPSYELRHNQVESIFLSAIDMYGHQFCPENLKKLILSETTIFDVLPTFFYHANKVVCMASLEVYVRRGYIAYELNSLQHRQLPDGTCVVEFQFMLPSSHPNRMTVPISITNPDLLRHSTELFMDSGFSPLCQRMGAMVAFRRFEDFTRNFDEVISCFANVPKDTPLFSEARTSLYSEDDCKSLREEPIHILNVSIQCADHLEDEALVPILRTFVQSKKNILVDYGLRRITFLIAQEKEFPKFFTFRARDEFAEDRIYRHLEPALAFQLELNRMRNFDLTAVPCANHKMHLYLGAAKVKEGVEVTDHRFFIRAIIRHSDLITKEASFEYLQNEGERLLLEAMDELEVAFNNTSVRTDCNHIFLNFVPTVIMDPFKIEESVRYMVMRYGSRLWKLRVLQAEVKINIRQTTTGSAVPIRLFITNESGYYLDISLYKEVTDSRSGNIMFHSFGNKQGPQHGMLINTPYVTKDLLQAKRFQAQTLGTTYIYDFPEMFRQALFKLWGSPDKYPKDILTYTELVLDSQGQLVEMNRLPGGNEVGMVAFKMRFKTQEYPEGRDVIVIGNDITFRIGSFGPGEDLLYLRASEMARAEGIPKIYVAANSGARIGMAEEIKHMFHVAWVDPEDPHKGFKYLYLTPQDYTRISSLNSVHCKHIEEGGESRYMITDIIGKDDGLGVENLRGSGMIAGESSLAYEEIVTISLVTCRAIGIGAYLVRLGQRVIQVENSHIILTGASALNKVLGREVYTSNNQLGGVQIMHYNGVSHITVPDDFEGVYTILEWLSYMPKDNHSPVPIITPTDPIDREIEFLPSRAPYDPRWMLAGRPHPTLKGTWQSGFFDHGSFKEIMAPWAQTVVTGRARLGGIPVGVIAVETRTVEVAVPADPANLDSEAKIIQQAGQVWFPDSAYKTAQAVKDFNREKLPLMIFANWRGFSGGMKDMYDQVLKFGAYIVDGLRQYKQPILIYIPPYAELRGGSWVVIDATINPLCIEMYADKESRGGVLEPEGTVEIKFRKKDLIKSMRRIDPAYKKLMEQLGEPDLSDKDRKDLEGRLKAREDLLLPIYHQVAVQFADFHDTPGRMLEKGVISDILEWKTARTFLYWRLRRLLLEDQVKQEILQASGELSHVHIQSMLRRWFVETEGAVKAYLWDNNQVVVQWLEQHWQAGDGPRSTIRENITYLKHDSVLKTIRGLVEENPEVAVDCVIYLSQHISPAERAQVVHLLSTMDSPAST
experiment summary: ACC2 assay, spectrophotometric 384 well assay (NADH-linked, coupled lactate dehydrogenase/pyruvate kinase)
Assay type: biochemical
condition details: ACC2 assay, hACC2 construct lacking 128 N-terminal amino acids, 25° C., 340 nm; read-out: IC50
pIC50: −log10 of the molar value.
attribute measured: pIC50

Here's what some known entries look like.
CC(=O)N[C@@H](C)c1ccc(C2CCN(c3ccc(OC4COC4)cc3)CC2)cc1 = 6.22
CCC(C)Oc1ccc(N2CCC(c3ccc([C@H](C)NC(C)=O)cc3)CC2)cc1 (some centres unmarked) = 7.10
CC(=O)N[C@@H](C)c1ccc(C2CCN(c3ncc(C4=CCCCC4)cn3)CC2)cc1 = 6.82
COCCOc1ccc(N2CCC(c3ccc([C@H](C)NC(C)=O)cc3)CC2)cc1F = 5.82
COc1ccc(-c2cnc(N3CCC(c4ccc([C@H](C)NC(C)=O)cc4)CC3)nc2)cn1 = 6.70
COc1ccccc1CNC(=O)c1cnc(N2CCC(c3ccc([C@H](C)NC(C)=O)cc3)CC2)nc1 = 4.99
CNc1nc(N2CCC(c3ccc([C@H](C)NC(C)=O)cc3)CC2)ncc1-c1ccccc1 = 6.49
CC(=O)N[C@@H](C)c1ccc(C2CCN(c3cc(OCCc4ccccc4)ncn3)CC2)cc1 = 5.46
CC(=O)N[C@@H](C)c1ccc(C2CCN(c3ncc(C(=O)NCC4CCCCO4)cn3)CC2)cc1 (some centres unmarked) = 4.67
CC(=O)N[C@@H](C)c1ccc(C2CCN(c3ccc(C(C)C)cc3)CC2)cc1 = 6.96

A = CC(=O)NC(C)Cc1ccc(C2CCN(c3ccc(OC4CC4)cc3)CC2)cc1 (centres unmarked)
B = COc1cccc(COc2cc(N3CCC(c4ccc([C@H](C)NC(C)=O)cc4)CC3)ccn2)c1
Lowest pIC50? choose A or B Reply with the label of the item you choose. B
(B: 5.82, A: 6.34)

I = CC(=O)N[C@@H](C)c1ccc(C2CCN(c3nc4ccccc4s3)CC2)cc1
II = CCC(CC)Oc1cc(N2CCC(c3ccc([C@H](C)NC(C)=O)cc3)CC2)ncn1
Higher pIC50: I or II ? Reply with the label of the item you choose. II

1 = C[C@H](NC(=O)C1CC1)c1ccc(C2CCN(c3cccc(OCC4CC4)c3)CC2)cc1
2 = CC(=O)N[C@@H](C)c1ccc(C2CCN(c3ncc(-c4ccc5occc5c4)cn3)CC2)cc1
Lowest pIC50? choose 1 or 2 Reply with the label of the item you choose. 1

a = CC(=O)N[C@@H](C)c1ccc(C2CCN(c3ccc(OCC4CC4)nc3)CC2)cc1
b = CC(=O)N[C@@H](C)c1ccc(C2CCN(c3ncc(C(=O)N4CCc5cnccc54)cn3)CC2)cc1
c = COc1cncc(N2CCC(c3ccc([C@H](C)NC(C)=O)cc3)CC2)c1
d = CC(=O)N[C@@H](C)c1ccc(C2CCN(c3ccc(C4CC4)cn3)CC2)cc1
// ranking: key=pIC50, reverse=True // respond by listing labels in the order requested a, d, b, c

A = CC(=O)N[C@@H](C)c1ccc(C2CCN(c3ccnc(OCCc4ccccc4)n3)CC2)cc1
B = CC(=O)N[C@@H](C)c1ccc(C2CCN(c3ncc(C(=O)NCC4CCNCC4)cn3)CC2)cc1
Higher pIC50: A or B ? Reply with the label of the item you choose. A
(A: 5.34, B: 4.81)

a = CCOc1ccc(N2CCC(c3ccc([C@H](C)NC(=O)C4(C)CCC4)cc3)CC2)cc1
b = CC(=O)N[C@@H](C)c1ccc(C2CCN(c3ccc(OCC(C)(C)C)cc3)CC2)cc1
c = CC(=O)N[C@@H](C)c1ccc(C2CCN(c3ncc(-c4ccc5[nH]ccc5c4)cc3F)CC2)cc1
d = CC(=O)N[C@@H](C)c1ccc(C2CCN(c3ccnc(N(C)C4CC4)n3)CC2)cc1
e = CC(=O)N[C@@H](C)c1ccc(C2CCN(c3ccnc(C(C)C)n3)CC2)cc1
// ranking: key=pIC50, reverse=True // respond by listing labels in the order requested b, e, c, d, a
(b: 7.00, e: 6.64, c: 6.37, d: 6.11, a: 5.59)

I = COc1ccc(CNC(=O)c2cnc(N3CCC(c4ccc([C@H](C)NC(C)=O)cc4)CC3)nc2)cc1
II = CCOc1ccc(N2CCC(c3ccc([C@H](C)NS(=O)(=O)CC)cc3)CC2)cc1
III = CCOc1ccc(N2CCC(c3ccc([C@H](C)NC(N)=O)cc3)CC2)cc1
IV = CCCOc1cc(N2CCC(c3ccc([C@H](C)NC(C)=O)cc3)CC2)ncn1
// ranking: key=pIC50, reverse=True // respond by listing labels in the order requested IV, III, II, I
(IV: 6.74, III: 5.77, II: 5.38, I: 4.69)
